B1: DELLA protein GAI (Arabidopsis thaliana (Mouse-ear cress)), Q9LQT8 (parent)
chain: MKRDHHHHHHQDKKTMMMNEEDDGNGMDELLAVLGYKVRSSEMADVAQKLEQLEVMMSNVQEDDLSQLATETVHYNPAELYTWLDSMLTDLNPPSSNAEYDLKAIPGDAILNQFAIDSASSSNQGGGGDTYTTNKRLKCSNGVVETTTATAESTRHVVLVDSQENGVRLVHALLACAEAVQKENLTVAEALVKQIGFLAVSQIGAMRKVATYFAEALARRIYRLSPSQSPIDHSLSDTLQMHFYETCPYLKFAHFTANQAILEAFQGKKRVHVIDFSMSQGLQWPALMQALALRPGGPPVFRLTGIGPPAPDNFDYLHEVGCKLAHLAEAIHVEFEYRGFVANTLADLDASMLELRPSEIESVAVNSVFELHKLLGRPGAIDKVLGVVNQIKPEIFTVVEQESNHNSPIFLDRFTESLHYYSTLFDSLEGVPSGQDKVMSEVYLGKQICNVVACDGPDRVERHETLSQWRNRFGSAGFAAAHIGSNAFKQASMLLALFNGGEGYRVEESDGCLMLGWHTRPLIATSAWKLSTN
partner: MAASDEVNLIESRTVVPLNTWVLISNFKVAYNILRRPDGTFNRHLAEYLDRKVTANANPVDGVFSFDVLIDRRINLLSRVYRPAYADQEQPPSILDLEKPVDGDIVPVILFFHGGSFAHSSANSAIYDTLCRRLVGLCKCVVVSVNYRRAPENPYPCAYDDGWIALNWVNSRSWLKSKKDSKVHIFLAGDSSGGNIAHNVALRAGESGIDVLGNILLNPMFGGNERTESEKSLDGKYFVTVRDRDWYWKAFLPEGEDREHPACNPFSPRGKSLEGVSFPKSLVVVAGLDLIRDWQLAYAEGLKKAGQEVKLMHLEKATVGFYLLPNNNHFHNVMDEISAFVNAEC

- Variants of: B1
- condition_info: with gid1a_arath GID1A

>  <sequence_variant>
E51R;E54R

>  <effect of a mutation on the interaction>
disrupting interaction

$$$$
>  <sequence_variant>
Y36A;M43A

>  <effect of a mutation on the interaction>
disrupting interaction

$$$$
>  <sequence_variant>
L31A;V38A

>  <effect of a mutation on the interaction>
disrupting interaction

$$$$
